B1: tRNA (parent)
chain: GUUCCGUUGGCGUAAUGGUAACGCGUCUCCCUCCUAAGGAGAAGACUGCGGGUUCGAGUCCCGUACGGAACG

Variants of: B1
Run description: yeast fitness relative to wild type (ratio to wild type); higher = fitter; tRNA-Arg(CCU), competitive growth, 37 C, YPD
This sample holds only a part of the variants without activity.
Y means recorded yeast fitness is 0.7 or above; N means it is below 0.7.

{"Mutant": "C4U A15U U16A G23C A57U A69U", "Class assignment": "N"}
{"Mutant": "G38C A40U U54C", "Class assignment": "N"}
{"Mutant": "U3A C27G C31U C33U A42C G58C", "Class assignment": "N"}
{"Mutant": "C31G C33U A37C", "Class assignment": "N"}
{"Mutant": "A15U C24A G25A U47C G52C A65U", "Class assignment": "N"}
{"Mutant": "C4U G9A C49U G50A", "Class assignment": "N"}
{"Mutant": "G17A C22U", "Class assignment": "Y"}
{"Mutant": "U47C G58U A65U", "Class assignment": "N"}
{"Mutant": "G18C G23A G25C A37G A43C U54C C55G G68A", "Class assignment": "N"}
{"Mutant": "U2C G52C U59G", "Class assignment": "N"}
{"Mutant": "G10A C29U A57C", "Class assignment": "N"}
{"Mutant": "A21G A37C A57C G58A", "Class assignment": "N"}
{"Mutant": "G17A A21G U28G C62G", "Class assignment": "N"}
{"Mutant": "A15G A37U A40C A43C", "Class assignment": "N"}
{"Mutant": "G12A A43U G58C", "Class assignment": "N"}
{"Mutant": "C5U C24U A36G", "Class assignment": "Y"}
{"Mutant": "G6C A40C A45C", "Class assignment": "N"}
{"Mutant": "C31G A36C C49G", "Class assignment": "N"}
{"Mutant": "G9C C22A C34A A70G", "Class assignment": "N"}
{"Mutant": "C24G G39A A70C", "Class assignment": "N"}
{"Mutant": "U13C A65G A70C", "Class assignment": "Y"}
{"Mutant": "U47A C49U", "Class assignment": "Y"}
{"Mutant": "C34U G63A", "Class assignment": "N"}
{"Mutant": "G18A A70G", "Class assignment": "N"}
{"Mutant": "A15C A40U", "Class assignment": "Y"}
{"Mutant": "A14C C30U A37C", "Class assignment": "N"}
{"Mutant": "G6C C11G A14U C22U G44A C55A G63A", "Class assignment": "N"}
{"Mutant": "A20C A69U", "Class assignment": "Y"}
{"Mutant": "U3G U16C G39C A45C C49G C62G", "Class assignment": "N"}
{"Mutant": "G10C U16G A43C G51C", "Class assignment": "N"}
{"Mutant": "U8A G68C", "Class assignment": "N"}
{"Mutant": "A14C U47C", "Class assignment": "Y"}
{"Mutant": "U7C G9C G23A A36C C66A", "Class assignment": "N"}
{"Mutant": "C4G C11G C55U", "Class assignment": "N"}
{"Mutant": "C4U U28A A57C C61A", "Class assignment": "N"}
{"Mutant": "C22U C33G G58C", "Class assignment": "N"}
{"Mutant": "C27A U28C G67U A70G", "Class assignment": "N"}
{"Mutant": "A37U U64A", "Class assignment": "N"}
{"Mutant": "C22G U35C", "Class assignment": "Y"}
{"Mutant": "U3A U47G G67A A69U", "Class assignment": "N"}
{"Mutant": "U28C A42U A43G", "Class assignment": "N"}
{"Mutant": "U13G G41C", "Class assignment": "Y"}
{"Mutant": "U53A C55U", "Class assignment": "N"}
{"Mutant": "C4G A21C C22A C27G C34U G56A G67C", "Class assignment": "N"}
{"Mutant": "U8C U13G C22U C49U A65U", "Class assignment": "N"}
{"Mutant": "C11U A15C A36C A37U", "Class assignment": "N"}
{"Mutant": "A42G U47C C62A C66U", "Class assignment": "N"}
{"Mutant": "C4U A42G U47C G58A", "Class assignment": "N"}
{"Mutant": "U54C A70U", "Class assignment": "Y"}
{"Mutant": "C11A A21C C31A C55U G68C", "Class assignment": "N"}
{"Mutant": "C22G U28C C29A A42C", "Class assignment": "N"}
{"Mutant": "A15U A21C C29U C30A G38A", "Class assignment": "N"}
{"Mutant": "A57U U59A A65C", "Class assignment": "N"}
{"Mutant": "G38C U64A G68A", "Class assignment": "N"}
{"Mutant": "A14C C27G C46G C62U", "Class assignment": "N"}
{"Mutant": "A21C C29G G68C", "Class assignment": "N"}
{"Mutant": "U3A G23C A45G", "Class assignment": "N"}
{"Mutant": "U3A C62U G63C", "Class assignment": "N"}
{"Mutant": "A14U C60G A70C", "Class assignment": "N"}
{"Mutant": "C11U A20U C22A C66G", "Class assignment": "N"}
{"Mutant": "U8C G9A U13A A15G A37U", "Class assignment": "N"}
{"Mutant": "U26G C46A", "Class assignment": "Y"}
{"Mutant": "U28A A45G A69C", "Class assignment": "N"}
{"Mutant": "C5A C22G C27G A36U A40C A57U C66U", "Class assignment": "N"}
{"Mutant": "U19A C22G C24U C33G A36G", "Class assignment": "N"}
{"Mutant": "A37G G44C A57U G68C", "Class assignment": "N"}
{"Mutant": "U7A G12C A20G C34U C49G", "Class assignment": "N"}
{"Mutant": "C4U C11U U26G U28C A37G G41A C49G", "Class assignment": "N"}
{"Mutant": "U2G C4G C11A", "Class assignment": "N"}
{"Mutant": "C33G C66G A70G", "Class assignment": "N"}
{"Mutant": "A21G C30U U53A A57U A65U", "Class assignment": "N"}
{"Mutant": "U8A U26C G52C", "Class assignment": "N"}
{"Mutant": "G25A C49A G68C", "Class assignment": "N"}
{"Mutant": "G10C C22A C24G G51C C62U", "Class assignment": "N"}
{"Mutant": "C4U A42C A45G C66A A69U", "Class assignment": "N"}
{"Mutant": "C4U G10A", "Class assignment": "N"}
{"Mutant": "G41C A65C", "Class assignment": "Y"}
{"Mutant": "C4A A15G G17A C33U G39C C55A G67C", "Class assignment": "N"}
{"Mutant": "A15C A36U A65C", "Class assignment": "N"}
{"Mutant": "G12A A36C A37C U53G A70C", "Class assignment": "N"}
{"Mutant": "A40U A65G", "Class assignment": "Y"}
{"Mutant": "C27A C31G G50A", "Class assignment": "N"}
